# assayTarget: Fuc(a1-3)[Gal(b1-4)]GlcNAc(b1-3)Gal(b1-4)[Fuc(a1-3)]GlcNAc
# experimentalDetails: glycan array binding signal (z-score within array); higher = stronger binding
# assaySetup: glycan notation: IUPAC condensed, linker removed
The full list was thinned out, with the strongest signals kept by preference.
Please mark true if the recorded glycan array binding signal (z-score) is equal to or greater than -0.1, and false if it falls below.

# input Textbook exercise: given the entry LFA (Limax flavus) (protein) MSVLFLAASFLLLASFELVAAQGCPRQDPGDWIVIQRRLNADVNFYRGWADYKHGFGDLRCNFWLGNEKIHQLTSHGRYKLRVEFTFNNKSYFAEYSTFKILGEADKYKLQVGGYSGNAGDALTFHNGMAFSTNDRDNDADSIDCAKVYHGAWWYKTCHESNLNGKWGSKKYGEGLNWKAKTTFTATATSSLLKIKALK , state whether its glycan array binding signal (z-score) is greater than or equal to -0.1.
# output false

# input Textbook exercise: given the entry CFEM-SCL (Saccharomyces cerevisiae), O13547 (protein) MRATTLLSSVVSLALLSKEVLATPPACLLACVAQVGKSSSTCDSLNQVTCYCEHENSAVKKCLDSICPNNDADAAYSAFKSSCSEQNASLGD , state whether its glycan array binding signal (z-score) is greater than or equal to -0.1.
# output false

# input Textbook exercise: given the entry AT5G01260(PC)(40) (Arabidopsis thaliana), Q9LFB0 (protein) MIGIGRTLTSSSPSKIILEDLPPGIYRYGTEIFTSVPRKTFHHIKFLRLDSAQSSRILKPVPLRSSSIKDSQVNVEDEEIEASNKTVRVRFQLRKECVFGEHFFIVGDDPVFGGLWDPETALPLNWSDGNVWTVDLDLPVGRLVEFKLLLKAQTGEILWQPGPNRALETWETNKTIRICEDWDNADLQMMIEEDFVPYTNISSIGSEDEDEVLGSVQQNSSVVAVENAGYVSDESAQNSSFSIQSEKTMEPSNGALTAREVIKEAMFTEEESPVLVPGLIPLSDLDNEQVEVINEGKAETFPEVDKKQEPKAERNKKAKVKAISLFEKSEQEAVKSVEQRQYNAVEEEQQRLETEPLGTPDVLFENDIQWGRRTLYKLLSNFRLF , state whether its glycan array binding signal (z-score) is greater than or equal to -0.1.
# output false

# input Textbook exercise: given the entry EUL D1A second (Oryza sativa) (protein) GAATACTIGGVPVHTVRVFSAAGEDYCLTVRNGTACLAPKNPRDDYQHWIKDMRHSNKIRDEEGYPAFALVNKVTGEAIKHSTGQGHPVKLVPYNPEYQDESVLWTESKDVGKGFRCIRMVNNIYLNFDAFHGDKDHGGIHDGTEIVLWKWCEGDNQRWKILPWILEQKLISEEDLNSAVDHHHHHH , state whether its glycan array binding signal (z-score) is greater than or equal to -0.1.
# output false

# input Textbook exercise: given the entry HPA (Helix pomatia), Q2F1K8 (protein) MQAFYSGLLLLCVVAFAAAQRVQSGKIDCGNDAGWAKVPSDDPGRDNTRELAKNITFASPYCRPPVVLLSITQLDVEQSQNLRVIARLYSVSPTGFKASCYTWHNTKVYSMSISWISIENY , state whether its glycan array binding signal (z-score) is greater than or equal to -0.1.
# output false

# input Textbook exercise: given the entry Langerin K299A/K313A (Homo sapiens), Q9UJ71 (protein) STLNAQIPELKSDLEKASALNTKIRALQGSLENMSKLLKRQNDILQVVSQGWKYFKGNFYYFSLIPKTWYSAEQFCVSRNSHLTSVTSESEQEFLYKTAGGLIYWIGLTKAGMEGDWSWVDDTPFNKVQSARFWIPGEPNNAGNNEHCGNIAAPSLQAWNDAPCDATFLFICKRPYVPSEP , state whether its glycan array binding signal (z-score) is greater than or equal to -0.1.
# output true

# input Textbook exercise: given the entry LlpB (Pseudomonas fluorescens) (protein) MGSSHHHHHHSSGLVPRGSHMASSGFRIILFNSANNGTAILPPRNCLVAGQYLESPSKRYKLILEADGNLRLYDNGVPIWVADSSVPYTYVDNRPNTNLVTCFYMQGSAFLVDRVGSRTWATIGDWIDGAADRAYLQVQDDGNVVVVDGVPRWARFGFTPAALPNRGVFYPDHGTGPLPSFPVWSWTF , state whether its glycan array binding signal (z-score) is greater than or equal to -0.1.
# output true
